- Tested on: Raji
- Test Name: Cytotoxicity against human Raji cells after 48 hrs by MTT assay
- Assay type: functional, cell-based
Item-by-item account of IC50
Entry rule: numbers only, all in µM.

In the examples that follow, each entry is paired with its recorded IC50.
Lab entry: Raji assay, compound `O=C(O)CN1C(=O)/C(=C/c2nc3ccc(Cl)cc3n2Cc2ccccc2F)SC1=S` , IC50 = 8.87

Lab entry: Raji assay, compound `O=C(O)CN1C(=O)/C(=C/c2nc3cc(Cl)ccc3n2Cc2ccccc2F)SC1=S` , IC50 = 2.78

Lab entry: Raji assay, compound COc1cc([C@@H]2c3cc4c(cc3[C@@H](O[C@@H]3O[C@@H]5CO[C@@H](C)O[C@H]5[C@H](O)[C@H]3O)[C@H]3COC(=O)[C@H]23)OCO4)cc(OC)c1O [ETOPOSIDE] , IC50 = 1.21

Lab entry: Raji assay, compound `Cc1ccc(Cn2c(/C=C3\SC(=S)N(CC(=O)O)C3=O)nc3ccc(F)cc32)cc1` , IC50 = 2.44

Lab entry: Raji assay, compound `O=C(O)CN1C(=O)/C(=C/c2nc3ccccc3n2Cc2ccc(C(F)(F)F)cc2)SC1=S` , IC50 = 18.8

Next:
Lab entry: Raji assay, compound `COc1ccc(C(=O)Cn2c(/C=C3\SC(=S)N(CC(=O)O)C3=O)nc3ccccc32)cc1` , IC50 = 6.32

Lab entry: Raji assay, compound `O=C(O)CCN1C(=O)/C(=C/c2nc3ccccc3n2Cc2ccccc2F)SC1=S` , IC50 = 11.3

Lab entry: Raji assay, compound `O=C(O)CN1C(=O)/C(=C/c2nc3ccccc3n2Cc2ccc(F)c(F)c2)SC1=S` , IC50 = 7.25

Lab entry: Raji assay, compound `CC[C@@]1(O)C(=O)OCc2c1cc1n(c2=O)Cc2cc3ccccc3nc2-1` , IC50 = 3.27

====

- System: HL-60
- Test Name: Cytotoxicity against human HL60 cells after 48 hrs by MTT assay
- Format: functional, cell-based
- Particulars: HL-60, 48 h
Experimental Readout: pIC50
# reply with the number alone; pIC50 is -log10 of concentration in mol/L

The recorded pIC50 for `O=C(O)CN1C(=O)/C(=C/c2nc3ccccc3n2Cc2ccc(Br)cc2F)SC1=S` is 5.19

The recorded pIC50 for `O=C(O)CN1C(=O)/C(=C/c2nc3cc(Cl)ccc3n2Cc2ccccc2F)SC1=S` is 6.06

The recorded pIC50 for `Cc1ccc(Cn2c(/C=C3\SC(=S)N(CC(=O)O)C3=O)nc3ccc(F)cc32)cc1` is 5.77

Next:
The recorded pIC50 for `Cc1ccc(Cn2c(/C=C3\SC(=S)N(CC(=O)O)C3=O)nc3ccc(Cl)cc32)cc1` is 5.55

The recorded pIC50 for `Cc1ccc(Cn2c(/C=C3\SC(=S)NC3=O)nc3ccccc32)cc1` is 5.58

====

- Test system: Raji
- Test Name: Cytotoxicity against human Raji cells after 48 hrs by MTT assay
- Format: functional, cell-based
Experimental Readout: pIC50
# reply with the number alone; pIC50 is -log10 of concentration in mol/L

The recorded pIC50 for `O=C(O)CN1C(=O)/C(=C/c2nc3ccccc3n2Cc2ccc([N+](=O)[O-])cc2)SC1=S` is 5.60

Next:
The recorded pIC50 for `O=C(O)CN1C(=O)/C(=C/c2nc3ccccc3n2Cc2ccc(Cl)cc2)SC1=S` is 4.94

The recorded pIC50 for `O=C(O)CN1C(=O)/C(=C/c2nc3ccccc3n2Cc2ccc(F)cc2F)SC1=S` is 5.05

The recorded pIC50 for `COc1ccc2nc(/C=C3\SC(=S)N(CC(=O)O)C3=O)n(Cc3ccccc3F)c2c1` is 4.91

The recorded pIC50 for `Cc1ccc(Cn2c(/C=C3\SC(=S)N(CC(=O)O)C3=O)nc3cc(Cl)ccc32)cc1` is 4.68

====

- System: HL-60
- Test Name: Cytotoxicity against human HL60 cells after 48 hrs by MTT assay
- Type: functional, cell-based
- Particulars: HL-60, 48 h
Item-by-item account of IC50
Entry rule: numbers only, all in nM.

In the examples that follow, each entry is paired with its recorded IC50.
The recorded IC50 for `O=C(O)CN1C(=O)/C(=C/c2nc3ccccc3n2Cc2ccc(Cl)cc2)SC1=S` is 2650

The recorded IC50 for `COc1ccc2nc(/C=C3\SC(=S)N(CC(=O)O)C3=O)n(Cc3ccc(C)cc3)c2c1` is 1920

The recorded IC50 for `O=C(O)CN1C(=O)/C(=C/c2nc3ccccc3n2Cc2ccc(C(F)(F)F)cc2)SC1=S` is 3560

The recorded IC50 for COc1cc([C@@H]2c3cc4c(cc3[C@@H](O[C@@H]3O[C@@H]5CO[C@@H](C)O[C@H]5[C@H](O)[C@H]3O)[C@H]3COC(=O)[C@H]23)OCO4)cc(OC)c1O [ETOPOSIDE] is 580

The recorded IC50 for `CCn1c(/C=C2\SC(=S)N(CC(=O)O)C2=O)nc2ccccc21` is 2120

The recorded IC50 for `O=C(O)CN1C(=O)/C(=C/c2nc3ccccc3n2CC(=O)c2ccc(Cl)cc2)SC1=S` is 2430

# input for lookup
The recorded IC50 for `COc1ccc2c(c1)nc(/C=C1\SC(=S)N(CC(=O)O)C1=O)n2Cc1ccc(C)cc1` is 770

====

- Species on record: Homo sapiens
- Test Name: Inhibition of human topoisomerase 2-mediated pBR322 DNA relaxation at 20 uM after 30 mins by agarose gel electrophoresis
Active and inactive are the calls of the source. The rule behind the calls is not given here.
Your answer must be one of the following: Y for active, N for inactive

As a guide, the following entries are already answered.
Prompt: Please share the test call associated with `O=C(O)CN1C(=O)/C(=C/c2nc3cc(Cl)ccc3n2Cc2ccccc2F)SC1=S` .
Completion: Y

Prompt: Please share the test call associated with `Cc1ccc(Cn2c(/C=C3\SC(=S)N(CCC(=O)O)C3=O)nc3ccccc32)cc1` .
Completion: N

Prompt: Please share the test call associated with `Cc1ccc(Cn2c(/C=C3\SC(=S)N(CC(=O)O)C3=O)nc3cc(F)ccc32)cc1` .
Completion: Y

Prompt: Please share the test call associated with `Cc1ccc(Cn2c(/C=C3\SC(=S)N(CC(=O)O)C3=O)nc3ccccc32)cc1` .
Completion: Y

Next:
Prompt: Please share the test call associated with `O=C(O)CN1C(=O)/C(=C/c2nc3cc(F)ccc3n2Cc2ccccc2F)SC1=S` .
Completion: N

====

- System: Raji
- Test Name: Cytotoxicity against human Raji cells after 48 hrs by MTT assay
- Format: functional, cell-based
Item-by-item account of IC50
Entry rule: numbers only, all in µM.

In the examples that follow, each entry is paired with its recorded IC50.
The recorded IC50 for `COc1ccc2c(c1)nc(/C=C1\SC(=S)N(CC(=O)O)C1=O)n2Cc1ccccc1F` is 11.5

The recorded IC50 for `O=C(O)CN1C(=O)/C(=C/c2nc3cc(F)ccc3n2Cc2ccccc2F)SC1=S` is 20.4

# input for lookup
The recorded IC50 for `N#Cc1ccc(Cn2c(/C=C3\SC(=S)N(CC(=O)O)C3=O)nc3ccccc32)cc1` is 9.78

====

Item-by-item account of IC50
- System: MDA-MB-231
- Test Name: Cytotoxicity against human MDA-MB-231 cells after 48 hrs by MTT assay
- Type: functional, cell-based
- Particulars: MDA-MB-231, 48 h

The recorded IC50 for `O=C(O)CN1C(=O)/C(=C/c2nc3ccccc3n2Cc2ccccc2F)SC1=S` is 0.33 µM

The recorded IC50 for `O=C(O)CN1C(=O)/C(=C/c2nc3cc(F)ccc3n2Cc2ccccc2F)SC1=S` is 22.4 µM

The recorded IC50 for `O=C(O)CN1C(=O)/C(=C/c2nc3ccccc3n2Cc2ccc(Cl)cc2)SC1=S` is 5.58 µM

The recorded IC50 for `O=C(O)CN1C(=O)/C(=C/c2nc3ccc(Cl)cc3n2Cc2ccccc2F)SC1=S` is 9.57 µM

The recorded IC50 for `O=C(O)CCN1C(=O)/C(=C/c2nc3ccccc3n2Cc2ccccc2F)SC1=S` is 9.53 µM

Next:
The recorded IC50 for `Cc1ccc(Cn2c(/C=C3\SC(=S)N(CCC(=O)O)C3=O)nc3ccccc32)cc1` is 3.79 µM

The recorded IC50 for `O=C(O)CN1C(=O)/C(=C/c2nc3ccccc3n2Cc2ccc(F)cc2)SC1=S` is 2.62 µM

The recorded IC50 for `CC[C@@]1(O)C(=O)OCc2c1cc1n(c2=O)Cc2cc3ccccc3nc2-1` is 16.4 µM

The recorded IC50 for `O=C(O)CN1C(=O)/C(=C/c2nc3ccccc3n2CC(=O)c2ccc(F)cc2)SC1=S` is 6.31 µM

====

- Test system: PC-3
- Test Name: Cytotoxicity against human PC3 cells after 48 hrs by MTT assay
- Format: functional, cell-based
- Particulars: PC-3, 48 h
Experimental Readout: IC50 (µM)
Entry rule: numbers only, all in µM.

Lab entry: PC-3 assay, molecule `O=C(O)CN1C(=O)/C(=C/c2nc3ccccc3n2Cc2ccc([N+](=O)[O-])cc2)SC1=S` , IC50 = 8.27

Lab entry: PC-3 assay, molecule CC[C@@]1(O)C(=O)OCc2c1cc1n(c2=O)Cc2cc3ccccc3nc2-1 [CAMPTOTHECIN] , IC50 = 18.2

Lab entry: PC-3 assay, molecule `O=C(O)CN1C(=O)/C(=C/c2nc3ccccc3n2Cc2ccc(Cl)cc2)SC1=S` , IC50 = 9.67

Lab entry: PC-3 assay, molecule `O=C(O)CCN1C(=O)/C(=C/c2nc3ccccc3n2Cc2ccccc2F)SC1=S` , IC50 = 28.6

Lab entry: PC-3 assay, molecule `O=C(O)CN1C(=O)/C(=C/c2nc3ccccc3n2Cc2cccc(F)c2)SC1=S` , IC50 = 35.7

Lab entry: PC-3 assay, molecule `O=C(O)CN1C(=O)/C(=C/c2nc3ccccc3n2Cc2ccc(Br)cc2)SC1=S` , IC50 = 8.49

Lab entry: PC-3 assay, molecule `O=C(O)CN1C(=O)/C(=C/c2nc3ccccc3n2CC(=O)c2ccc(Cl)cc2)SC1=S` , IC50 = 6.45

Lab entry: PC-3 assay, molecule `O=C(O)CN1C(=O)/C(=C/c2nc3ccccc3n2Cc2ccc(F)cc2F)SC1=S` , IC50 = 21.7

# input for lookup
Lab entry: PC-3 assay, molecule `COc1ccc(C(=O)Cn2c(/C=C3\SC(=S)N(CC(=O)O)C3=O)nc3ccccc32)cc1` , IC50 = 8.75
